The reported measurements were obtained from PubChem BioAssay (NCI).

tested on: SK-MEL-28 melanoma; test: NCI tumour cell line growth inhibition, 48 h
measured.parameter: TGI

O=C1C2C3SC(c4cc5ccccc5cc43)C2C(=O)N1c1ccccc1 (centres undefined): > 100 µM

Record lookup: for SK-MEL-28 melanoma, what TGI belongs to `COc1cc2ncnc(Nc3cccc(Br)c3)c2cc1OC` ?
> 44.9 µM

# repeat for `C=C(C)[C@@H]1CC[C@]2(C(=O)OC)CC[C@]3(C)[C@H](CC[C@@H]4[C@@](C)(CCc5nn[nH]n5)[C@H](C(=C)C)CC[C@]43C)[C@@H]12`
27.8 µM

# repeat for `CCOC(=O)c1sc2nc(=S)[nH]c(NC(N)=S)c2c1C`
41.6 µM

# repeat for COc1cc(/C=C2\CC3C4CC=C5C[C@@H](O)CC[C@]5(C)C4CC[C@]3(C)\C2=N\O)cc(OC)c1OC (some centres undefined)
> 100 µM

# repeat for `CCOC(=O)c1ccc(N2C(=O)/C(=C/c3ccc(N(CCC#N)CCC#N)cc3)N=C2c2cc([N+](=O)[O-])ccc2Cl)cc1`
> 100 µM

# repeat for OC1C2CN3CCN(C2)CC1(c1ccccc1)C3 (centres undefined)
> 100 µM

# repeat for `COc1ccc2c(c1)c(-c1ccc(-c3cn(C)c4ccc(OC)cc34)s1)cn2C`
> 100 µM

# repeat for `CCOC(=O)Cn1nnc2ccc(Nc3nc4ccccc4nc3C(=O)OCC)cc21`
> 100 µM

# repeat for C/C(=C\CCC1=CC(=O)OC1)CCC1C2C(=O)CC(C)[C@@]3(C)CC[C@]1(C)[C@@]23C (some centres undefined)
> 10 µM
